Reference source: patent US12152030B2

# TEST NAME: Pharmacokinetic study in rats
# Format: in vivo
# EXPERIMENTAL CONTEXT: male, SD, plasma, iv; rat, 1 mg/kg
MEASURE NAME: AUC(0-inf) (ng·h/mL)
One number for each entry, in ng·h/mL.

stdin: Specify reported AUC(0-inf) for the compound shown: `Cc1c2c(c(=O)n3c1C(=O)NC31CCCCC1)Nc1cc(NC(=O)C3CC3)ncc1C2`
stdout: 632

###

pIC50: −log10 of the molar value. Structures can show the parent of a compound that is named as a salt.
For reference, pIC50 measured on MNK1 (Homo sapiens, UniProt Q9BUB5):

For the 5 compounds below, give their pIC50 values.
1. CNc1cc2c(cn1)Cc1c(C)c3n(c(=O)c1N2)C1(CCCCC1)NC3=O [Compound 22, hydrochloride]
2. Cc1c2c(c(=O)n3c1C(=O)NC31CCCCC1)Nc1cc(NC(=O)C3CCC3)ncc1C2
3. Cc1c2c(c(=O)n3c1C(=O)NC31CCCCC1)Nc1cc(NC(=O)C(C)C)ncc1C2
4. Cc1c2c(c(=O)n3c1C(=O)NC31CCCCC1)Nc1cc(N)ncc1C2 [Compound 2, hydrochloride]
5. Cc1c2c(c(=O)n3c1C(=O)NC31CCCCC1)Nc1ccncc1C2 [Compound 16, hydrochloride]

stdout:
1. 7.00 to 8.00
2. 7.00 to 8.00
3. > 8.00
4. 7.00 to 8.00
5. 7.00 to 8.00

###

# TEST NAME: Pharmacokinetic study in rats
# Assay type: in vivo
# EXPERIMENTAL CONTEXT: male, SD, plasma, iv; rat, i.v., 1 mg/kg; read-out: Vz
MEASURE NAME: Vd (L/kg)
Answers are plain numbers, in L/kg.

stdin: Specify reported Vd for the compound shown: Cc1c2c(c(=O)n3c1C(=O)NC31CCCCC1)Nc1cc(NC(=O)C3CC3)ncc1C2 [Compound 26]
stdout: 4.14

###

# Test system: Phosphorylated eIF4E
# TEST NAME: Intracellular peIF4E signaling assay
# Format: cell-based
# EXPERIMENTAL CONTEXT: 2 h; two hours incubation at 37° C.; read-out: peIF4E signaling cell assay IC50
Counter-ions that a name gives are not always drawn.
MEASURE NAME: IC50

CNc1cc2c(cn1)Cc1c(C)c3n(c(=O)c1N2)C1(CCCCC1)NC3=O [Compound 22, hydrochloride] : < 50 nM

For the 2 molecules below, give their IC50 values.
1. Cc1c2c(c(=O)n3c1C(=O)NC31CCCCC1)Nc1cc(N)ncc1C2 [Compound 2, hydrochloride]
2. Cc1c2n(c(=O)c3[nH]c4cc(N)ncc4c(=O)c13)C(C)(c1cccc(F)c1)NC2=O (stereo not shown)

stdout:
["< 50 nM", "50 to 1000 nM"]

stdin: Specify reported IC50 for the molecule shown: Cc1c2n(c(=O)c3[nH]c4cc(N)ncc4c(=O)c13)C(C)(c1cccc(Cl)c1)NC2=O (stereo not shown)
stdout: 50 to 1000 nM

###

# TEST NAME: Pharmacokinetic study in rats
# Assay type: in vivo
# EXPERIMENTAL CONTEXT: male, SD, plasma, oral; rat, p.o. 3 mg/kg vs i.v. 1 mg/kg
MEASURE NAME: bioavailability (%)
One number for each entry, in %.

stdin: Specify reported bioavailability for the compound shown: Cc1c2c(c(=O)n3c1C(=O)NC31CCCCC1)Nc1cc(NC(=O)C3CC3)ncc1C2 [Compound 26]
stdout: 21.7

###

# TEST NAME: Pharmacokinetic study in rats
# Assay type: in vivo
# EXPERIMENTAL CONTEXT: male, SD, plasma, iv; rat, 1 mg/kg
MEASURE NAME: AUC(0-t) (ng·h/mL)
Answers are plain numbers, in ng·h/mL.

stdin: Specify reported AUC(0-t) for the molecule shown: `Cc1c2c(c(=O)n3c1C(=O)NC31CCCCC1)Nc1cc(NC(=O)C3CC3)ncc1C2`
stdout: 619

###

# TEST NAME: Pharmacokinetic study in rats
# Format: in vivo
# EXPERIMENTAL CONTEXT: male, SD, plasma, iv; rat, i.v., 3 mg/kg; read-out: Vz
Where a name gives a salt, the structure may show the parent alone.
MEASURE NAME: Vd (L/kg)
One number for each entry, in L/kg.

stdin: Specify reported Vd for the compound shown: Cc1c2c(c(=O)n3c1C(=O)NC31CCCCC1)Nc1cc(N)ncc1C2 [Compound 2, hydrochloride]
stdout: 12.3

###

# TEST NAME: Pharmacokinetic study in rats
# Assay type: in vivo
# EXPERIMENTAL CONTEXT: male, SD, plasma, iv; rat, 3 mg/kg
Structures can show the parent of a compound that is named as a salt.
MEASURE NAME: AUC(0-inf) (ng·h/mL)
One number for each entry, in ng·h/mL.

stdin: Specify reported AUC(0-inf) for the compound shown: Cc1c2c(c(=O)n3c1C(=O)NC31CCCCC1)Nc1cc(N)ncc1C2 [Compound 2, hydrochloride]
stdout: 471

###

For reference, pIC50 measured on MNK2 (Homo sapiens, UniProt Q9HBH9):
pIC50: −log10 of the molar value. Where a name gives a salt, the structure may show the parent alone.

For the 7 molecules below, give their pIC50 values.
1. Cc1c2c(c(=O)n3c1C(=O)NC31CCCCC1)Nc1cc(NC(=O)OC(C)(C)C)ncc1C2
2. Cc1c2n(c(=O)c3[nH]c4cc(N)ncc4c(=O)c13)C(C)(C)NC2=O
3. Cc1c2c(c(=O)n3c1C(=O)NC3(C)c1cccc(F)c1)Nc1cc(N)ncc1C2 (centres unmarked) [Compound 10, hydrochloride]
4. Cc1c2n(c(=O)c3[nH]c4cc(N)ncc4c(=O)c13)C1(CCCCC1)NC2=O
5. Cc1c2c(c(=O)n3c1C(=O)NC3(C)C)Nc1cc(N)ncc1C2 [Compound 4, hydrochloride]
6. Cc1c2c(c(=O)n3c1C(=O)NC31CCCCC1)Nc1cc(N)ncc1C2 [Compound 2, hydrochloride]
7. Cc1c2c(c(=O)n3c1C(=O)NC31CCCCC1)Nc1ccncc1C2 [Compound 16, hydrochloride]

stdout:
1. > 8.00
2. 7.00 to 8.00
3. 7.00 to 8.00
4. 7.00 to 8.00
5. 7.00 to 8.00
6. > 8.00
7. > 8.00

stdin: Enter pIC50 (test system MNK2 (Homo sapiens, UniProt Q9HBH9)) for `Cc1c2c(c(=O)n3c1C(=O)NC31CCCCC1)Nc1cc(NC(=O)C(C)C)ncc1C2`
stdout: > 8.00

###

# TARGET ENTITY: GAK (Homo sapiens)
# Sequence (O14976 whole entry): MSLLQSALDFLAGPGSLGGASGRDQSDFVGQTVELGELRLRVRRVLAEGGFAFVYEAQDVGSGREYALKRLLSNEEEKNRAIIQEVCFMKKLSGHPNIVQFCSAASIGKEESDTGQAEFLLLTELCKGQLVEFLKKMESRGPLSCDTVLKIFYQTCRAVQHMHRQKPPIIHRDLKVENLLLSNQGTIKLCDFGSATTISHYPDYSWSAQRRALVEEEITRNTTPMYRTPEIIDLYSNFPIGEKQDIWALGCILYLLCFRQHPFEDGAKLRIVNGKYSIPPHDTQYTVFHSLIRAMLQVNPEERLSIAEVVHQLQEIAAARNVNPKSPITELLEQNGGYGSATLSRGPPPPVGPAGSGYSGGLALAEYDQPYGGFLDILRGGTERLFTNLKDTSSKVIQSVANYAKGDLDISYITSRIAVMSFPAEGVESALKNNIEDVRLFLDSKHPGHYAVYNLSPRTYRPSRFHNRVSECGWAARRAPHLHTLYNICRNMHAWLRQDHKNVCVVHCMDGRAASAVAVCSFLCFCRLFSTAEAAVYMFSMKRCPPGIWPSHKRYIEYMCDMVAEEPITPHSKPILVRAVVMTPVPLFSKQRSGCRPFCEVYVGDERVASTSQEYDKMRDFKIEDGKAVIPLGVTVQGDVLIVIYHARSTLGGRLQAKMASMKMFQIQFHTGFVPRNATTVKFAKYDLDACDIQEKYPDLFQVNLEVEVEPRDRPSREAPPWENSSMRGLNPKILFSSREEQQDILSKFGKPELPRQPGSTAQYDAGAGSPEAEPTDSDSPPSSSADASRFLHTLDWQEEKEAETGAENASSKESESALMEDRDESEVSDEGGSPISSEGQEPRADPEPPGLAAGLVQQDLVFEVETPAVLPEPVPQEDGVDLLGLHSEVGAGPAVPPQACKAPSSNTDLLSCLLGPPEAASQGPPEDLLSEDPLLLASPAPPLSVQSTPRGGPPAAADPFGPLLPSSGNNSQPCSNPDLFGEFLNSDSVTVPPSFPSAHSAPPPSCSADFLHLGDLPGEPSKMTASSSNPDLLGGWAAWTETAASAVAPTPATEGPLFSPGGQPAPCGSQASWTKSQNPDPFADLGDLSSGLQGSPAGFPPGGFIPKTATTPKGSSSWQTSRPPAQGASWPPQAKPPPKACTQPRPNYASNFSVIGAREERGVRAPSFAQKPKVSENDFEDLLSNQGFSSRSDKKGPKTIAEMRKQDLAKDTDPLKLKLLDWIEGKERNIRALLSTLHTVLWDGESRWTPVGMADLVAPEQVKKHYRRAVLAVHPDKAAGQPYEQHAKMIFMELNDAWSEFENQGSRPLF
# TEST NAME: KinomeScan, GAK
# EXPERIMENTAL CONTEXT: dose response analysis; read-out: Kd of interaction with GAK
Counter-ions that a name gives are not always drawn.
MEASURE NAME: Kd (nM)
One number for each entry, in nM.

stdin: Specify reported Kd for the molecule shown: Cc1c2c(c(=O)n3c1C(=O)NC31CCCCC1)Nc1cc(N)ncc1C2 [Compound 2, hydrochloride]
stdout: 50

###

# TEST NAME: Pharmacokinetic study in rats
# Type: in vivo
# EXPERIMENTAL CONTEXT: male, SD, plasma, iv; rat, 3 mg/kg
Where a name gives a salt, the structure may show the parent alone.
MEASURE NAME: AUC(0-t)

stdin: Specify reported AUC(0-t) for the compound shown: Cc1c2c(c(=O)n3c1C(=O)NC31CCCCC1)Nc1cc(N)ncc1C2 [Compound 2, hydrochloride]
stdout: 456 ng·h/mL

###

# TEST NAME: Pharmacokinetic study in rats
# Type: in vivo
# EXPERIMENTAL CONTEXT: male, SD, plasma, oral; rat, p.o. 10 mg/kg vs i.v. 3 mg/kg
Counter-ions that a name gives are not always drawn.
MEASURE NAME: bioavailability (%)
One number for each entry, in %.

stdin: Specify reported bioavailability for the molecule shown: Cc1c2c(c(=O)n3c1C(=O)NC31CCCCC1)Nc1cc(N)ncc1C2 [Compound 2, hydrochloride]
stdout: 38.8

###

# TEST NAME: Pharmacokinetic study in rats
# Assay type: in vivo
# EXPERIMENTAL CONTEXT: male, SD, plasma, po; rat, 3 mg/kg
MEASURE NAME: Cmax
Include the unit right after the number.

stdin: Specify reported Cmax for the compound shown: Cc1c2c(c(=O)n3c1C(=O)NC31CCCCC1)Nc1cc(NC(=O)C3CC3)ncc1C2 [Compound 26]
stdout: 45.2 ng/mL

###

# TARGET ENTITY: MNK2 (Homo sapiens, UniProt Q9HBH9)
# Sequence (Q9HBH9 whole entry): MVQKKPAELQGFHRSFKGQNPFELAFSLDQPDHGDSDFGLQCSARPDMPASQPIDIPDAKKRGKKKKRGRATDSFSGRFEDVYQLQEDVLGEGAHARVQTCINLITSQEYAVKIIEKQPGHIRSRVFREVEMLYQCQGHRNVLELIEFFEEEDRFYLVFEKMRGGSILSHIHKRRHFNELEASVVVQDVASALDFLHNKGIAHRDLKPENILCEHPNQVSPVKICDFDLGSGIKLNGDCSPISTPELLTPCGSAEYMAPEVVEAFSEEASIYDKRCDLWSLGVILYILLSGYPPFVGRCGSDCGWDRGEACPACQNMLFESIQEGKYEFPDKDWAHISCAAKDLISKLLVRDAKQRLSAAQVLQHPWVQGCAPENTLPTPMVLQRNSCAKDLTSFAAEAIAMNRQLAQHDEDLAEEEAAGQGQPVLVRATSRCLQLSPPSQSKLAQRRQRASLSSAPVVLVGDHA
Counter-ions that a name gives are not always drawn.
MEASURE NAME: IC50

For the 3 molecules below, give their IC50 values.
1. Cc1c2c(c(=O)n3c1C(=O)NC31CCCCC1)Nc1cc(NC(=O)C3CC3)ncc1C2 [Compound 26]
2. Cc1c2n(c(=O)c3[nH]c4cc(N)ncc4c(=O)c13)C1(CCCC1)NC2=O [Compound 5]
3. Cl.[2H]C1([2H])c2cnc(N)cc2Nc2c1c(C)c1n(c2=O)C2(CCCCC2)NC1=O [Compound 20]

stdout:
1: < 10 nM; 2: < 10 nM; 3: < 10 nM

For the 2 molecules below, give their IC50 values.
1. CNc1cc2c(cn1)Cc1c(C)c3n(c(=O)c1N2)C1(CCCCC1)NC3=O [Compound 22, hydrochloride]
2. Cc1c2c(c(=O)n3c1C(=O)NC31CCCC1)Nc1cc(N)ncc1C2 [Compound 6]

stdout:
1: 10 to 100 nM; 2: < 10 nM
